molecular target: 15-PGDH de type 1 (Homo sapiens, UniProt P15428); construct: made in house; assay: Test on 15-PGDH type 1: spectrophotometric enzyme inhibition at 340 nm (NAD, PGE2 substrate); assay type: biochemical
Sequence (P15428 whole entry): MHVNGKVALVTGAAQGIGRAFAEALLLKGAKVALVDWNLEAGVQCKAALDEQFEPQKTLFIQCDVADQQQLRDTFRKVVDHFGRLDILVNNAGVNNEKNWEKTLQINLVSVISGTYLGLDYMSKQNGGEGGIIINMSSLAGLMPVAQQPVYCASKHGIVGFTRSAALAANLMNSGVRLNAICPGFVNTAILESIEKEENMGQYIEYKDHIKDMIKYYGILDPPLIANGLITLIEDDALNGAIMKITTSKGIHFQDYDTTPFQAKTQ
Reported inhibition at 100 µM is given for each of the following compounds.
readout: inhibition at 100 µM (%)

compound: CCN1C(=O)S/C(=C\c2ccccc2Oc2ccc(C(C)(C)C)cc2)C1=O [compound 13]
readout: inhibition at 100 µM
experimental value: 23
--
compound: CC(C)(C)CC(C)(C)c1ccc(Oc2ccccc2/C=C2/SC(=O)NC2=O)cc1 [compound 15]
readout: inhibition at 100 µM
experimental value: 27
--
compound: O=C1NC(=O)/C(=C/c2ccccc2Oc2ccc(F)cc2)S1 [compound 6]
readout: inhibition at 100 µM
experimental value: 48
--
compound: CC(C)(C)c1ccc(Oc2ccccc2/C=C2\SC(=O)NC2=O)c(C(C)(C)C)c1 [compound 17]
readout: inhibition at 100 µM
experimental value: 30
